Test system: B6.Cg-Tg(HCRT-MJD)1Stak/J (Atax) mouse model of NT1
Assay: Wake-promoting efficacy of oral small molecules, piezoelectric sleep/wake monitoring, Atax mice
Type: in vivo
Conditions: oral dose 1 mg/kg, dosed 5 h after light onset
# Lookup of reported Wake % time 1 h post dose (increase from vehicle) keyed by entry
Express the reported value numerically, then name its unit.

Known results for molecules:
O=C1CCOc2c(F)cccc2-c2cccc(c2F)C[C@H]2[C@@H](NS(=O)(=O)C3(F)CC3)CCCN12 ... 40.5%
O=C1CCOc2c(F)cc(F)cc2-c2cccc(c2F)C[C@H]2[C@@H](NS(=O)(=O)C3(F)CC3)CCCN12 ... 41.8%
O=C1CCOc2c(F)cc(F)cc2-c2cccc(c2F)C[C@H]2[C@@H](NS(=O)(=O)CF)[C@@H](F)CCN12 ... 32.4%

Input: # get_value(readout='Wake % time 1 h post dose (increase from vehicle)', item= O=C1CCOc2c(F)cccc2-c2cccc(c2F)C[C@H]2[C@@H](NS(=O)(=O)CF)[C@@H](F)CCN12 )
Output: 33.7%
